Source listed as patent US9040527B2.

Test System: PLK1 (Homo sapiens, UniProt P53350)
Sequence (P53350 whole entry): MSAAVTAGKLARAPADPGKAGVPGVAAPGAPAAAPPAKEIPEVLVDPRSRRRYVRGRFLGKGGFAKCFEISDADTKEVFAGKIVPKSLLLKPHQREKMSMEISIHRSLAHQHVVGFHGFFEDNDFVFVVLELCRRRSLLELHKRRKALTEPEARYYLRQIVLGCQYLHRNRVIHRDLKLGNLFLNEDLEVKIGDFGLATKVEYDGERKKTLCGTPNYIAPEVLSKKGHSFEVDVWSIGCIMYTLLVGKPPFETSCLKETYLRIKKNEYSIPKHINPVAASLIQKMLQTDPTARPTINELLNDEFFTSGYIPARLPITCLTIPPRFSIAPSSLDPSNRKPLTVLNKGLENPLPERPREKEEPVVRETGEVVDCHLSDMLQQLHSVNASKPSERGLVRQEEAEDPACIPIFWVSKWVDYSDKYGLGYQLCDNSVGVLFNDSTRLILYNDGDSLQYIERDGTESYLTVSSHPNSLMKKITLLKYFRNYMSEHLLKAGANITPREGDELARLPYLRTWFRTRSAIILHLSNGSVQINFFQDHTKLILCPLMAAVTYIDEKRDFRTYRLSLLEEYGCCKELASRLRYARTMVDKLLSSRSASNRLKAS
Protocol Description: Cellular PLK1 assay in K562 cells overexpressing CDC25C
Type: cell-based
Set-up: endogenous in cells; host or cells: K562 (human chronic myelogenous leukemia) overexpressing CDC25C, nocodazole-arrested
Protocol Conditions: nocodazole arrested, cdc25c p-Ser198 readout
Outcome Measure: IC50

Problem: Please look up its IC50: CCN1CCN(c2ccc(Nc3ncc(Cl)c(Nc4ccc5c(c4)N(CC)C(=O)CO5)n3)cc2)CC1
Solution: 0.5 to 5 µM

Problem: Given the compound CCCN1CCOc2ccc(Nc3nc(Nc4ccc(N5CC6CC5CN6C(C)=O)c(C)c4)ncc3F)nc21 (stereo not shown) , what is its reported IC50?
Solution: 0.5 to 5 µM

Problem: Report IC50 for CCN1C(=O)COc2ccc(Nc3nc(Nc4ccc(N5CCN(C)CC5)c(C)c4)ncc3C)cc21 please.
Solution: ≥ 10 µM

Problem: Given the entry CN1CCN(c2cc(Nc3ncc(F)c(Nc4ccc5c(n4)NC(=O)CO5)n3)cc(C(F)(F)F)c2)CC1 , report its measured IC50.
Solution: ≥ 10 µM

* * *

Test System: PLK1 (Homo sapiens, UniProt P53350)
Protocol Description: In vitro PLK1 ELISA assay (biochemical)
Set-up: purchased Cell Signalling 7728
Protocol Conditions: read-out: IC50 in biochemical in vitro PLK1 ELISA assay (less than 10 μM)
Documented IC50 across a set of molecules

CC(C)c1ccc(N2CCN(C)CC2)cc1Nc1ncc(F)c(Nc2ccc3c(n2)NC(=O)CO3)n1	< 10 µM
Cc1cnc(Nc2ccc(N3CCN(C)CC3)cc2)nc1Nc1ccc2c(c1)N(CCCF)C(=O)CO2	< 10 µM
Cc1cnc(Nc2cccc(N3CCN(C)CC3)c2)nc1Nc1ccc2c(n1)NC(=O)CO2	< 10 µM

Could you now consider this next molecule?
Problem: Field request: IC50 | item: Cc1cnc(Nc2cccc(N3CCN(C)CC3)c2)nc1Nc1ccc2c(n1)N(CC1CCC1)C(=O)CO2
Solution: < 10 µM

* * *

Test System: PLK1 (Homo sapiens, UniProt P53350)
Protocol Description: In vitro PLK1 ELISA assay (biochemical)
Set-up: purchased Cell Signalling 7728
Protocol Conditions: ELISA, CHK2-derived peptide substrate; read-out: PLK1 IC50 (μM) biochemical assay
Outcome Measure: IC50

Some compounds with known IC50 results, for comparison:
CCCN1C(=O)COc2ccc(Nc3nc(Nc4ccc(N5CC6CC5CN6C(C)=O)c(C)c4)ncc3F)nc21 (stereo not shown)	< 0.5 µM
CN1CCN(c2cccc(Nc3nccc(Nc4ccc5c(n4)NC(=O)CO5)n3)c2)CC1	≥ 10 µM

Problem: Give the reported IC50 for Cc1cc(Nc2ncc(C)c(Nc3ccc4c(n3)NC(=O)C(C)(C)O4)n2)ccc1N1CCN(C)CC1 (system: PLK1 (Homo sapiens, UniProt P53350)).
Solution: 5 to 10 µM

Problem: Provide the documented IC50 with PLK1 (Homo sapiens, UniProt P53350) as the system for CN1CC2CC1CN2c1cccc(Nc2ncc(F)c(Nc3ccc4c(n3)NCCO4)n2)c1 (stereo not shown)
Solution: < 0.5 µM

Problem: Find IC50 (PLK1 (Homo sapiens, UniProt P53350)) for the entry CN1CCN(c2cccc(Nc3ncc(F)c(N(CC4CCC4)c4ccc5c(n4)NCCO5)n3)c2)CC1
Solution: 5 to 10 µM

Problem: Missing value: IC50, PLK1 (Homo sapiens, UniProt P53350), entry CN1CC2CC1CN2c1ccc(Nc2ncc(F)c(Nc3ccc4c(n3)NCCO4)n2)cc1C(F)(F)F (stereo not shown) . Fill in?
Solution: ≥ 10 µM

Problem: Which measured IC50 belongs to CN1CCN(c2cccc(Nc3ncc(F)c(Nc4ccc5c(c4)NCCO5)n3)c2)CC1 , tested on PLK1 (Homo sapiens, UniProt P53350)?
Solution: < 0.5 µM
